# METHOD NOTES: yeast display, Sf9 membrane polyspecificity reagent, FACS + sequencing; frameworks hold sequencing errors
PROPERTY NAME: polyreactivity (PSR sort gate)

QVQLVESVGGLVQAGGSLRLSCAASGSTIANYAMGWYRQAPGKERELVARIRHSDGSTYYADSVKGRFTISRDNAKNTVYLQMNSLKPEDTAVYYCNVAYPRYRGNPRQSGMGYWGQGTQVTVSS
high polyreactivity
QVQLVESGGGLVQAGVSLRLSCSASGLTFRPNAIGWYRQAPGKERELVAAITWSGGRTYYADSVKGRFTISRDNATNTVYFQMNSLKPEDTAVYYCAAVPLRNRWPNSWPALDYWGQVTQVTVSS
high polyreactivity
QVQLVESGGGLVQAGGSLRLSCAASGRTFGYYAMGWYRQAPGKERELVATITWSGGSTYYADSVKGRFTISRDNAKNTVYLQMNSLKPEDTAVYYCATGQYGYWYGTENDYWGQGTQVTVSS
low polyreactivity
QVQLQESAGGLVQAGGSLRLRCSASGYISCDASMGWNRQAPGKERELAASITKGSSTNYADSVKGRFTIRDNAKNTVYLQMNSLKPEDTAVCYCAVTYPYWGDYTYWGQGTQVTVSR
low polyreactivity
QVQLVESGGGLVQAGGSLRLSCAASGITFKRYAMGWYRQAPGKERELVAAITWRGARTYYADSVKGRFTISRDNAKNTVYLQMNSLKPEDTAVYYCAADGYSGSGPYDYWGQGTQVTVSS
high polyreactivity
